# Test target: human Arginine Vasopressin Receptor 1a (AVPR1a) (Homo sapiens, UniProt P37288)
# Construct: expressed in transfected cells; host or cells: CHO (CHO-AVPR1a, kept under G418 selection)
# Sequence (P37288 whole entry): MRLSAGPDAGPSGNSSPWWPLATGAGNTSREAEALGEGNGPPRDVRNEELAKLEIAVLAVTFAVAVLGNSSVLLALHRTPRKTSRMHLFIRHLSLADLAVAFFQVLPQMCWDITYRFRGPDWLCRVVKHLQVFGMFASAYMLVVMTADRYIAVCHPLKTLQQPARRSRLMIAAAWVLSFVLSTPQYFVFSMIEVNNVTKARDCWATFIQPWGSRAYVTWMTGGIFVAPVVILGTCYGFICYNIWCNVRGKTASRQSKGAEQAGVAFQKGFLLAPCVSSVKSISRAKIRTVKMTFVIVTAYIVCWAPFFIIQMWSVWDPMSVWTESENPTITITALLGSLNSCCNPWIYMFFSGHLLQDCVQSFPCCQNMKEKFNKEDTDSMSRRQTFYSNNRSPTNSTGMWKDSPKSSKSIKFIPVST
# Experiment summary: Vasopressin V1a receptor antagonist assay (FLIPR calcium, CHO-AVPR1a cells)
# Type: cell-based
Measurement name: IC50

Some entries whose results are on file:
{"Compound": "CC1COc2cc(F)ccc2N1C(=O)N1CC2(C1)CN(c1ccc(F)cn1)C2 (single isomer, unassigned) [12-1-B]", "IC50": "< 100 nM"}
{"Compound": "CCC1COc2cc(Cl)ccc2N1C(=O)N1CC2(C1)CN(c1ccc(F)cn1)C2 (single isomer, unassigned) [1-55-A]", "IC50": "500 to 1000 nM"}
{"Compound": "Cc1cnc(N2CC3(CN(C(=O)N4CCOc5cc(Cl)ccc54)C3)C2)cn1", "IC50": "< 100 nM"}

Query string: Find the recorded IC50 belonging to CC1COc2cc(Cl)ccc2N1C(=O)N1CC2(C1)CN(c1cc(C#N)ccn1)C2 (single isomer, unassigned) [20-6-A] and report it.
Result string: ≥ 1000 nM

Query string: So what does the record say about IC50 for "Cc1ccnc(N2CC3(CN(C(=O)N4CCOc5cc(Cl)ccc54)C3)C2)c1" ?
Result string: < 100 nM

Query string: Bench note: what IC50 did CC1COc2cc(F)c(F)cc2N1C(=O)N1CC2(C1)CN(c1ccc(F)cn1)C2 (single isomer, unassigned) [19-5-A] show?
Result string: 100 to 500 nM

Query string: So what does the record say about IC50 for "O=C(N1CC2(C1)CN(c1n[nH]c3ccccc13)C2)N1CCOc2cc(Cl)ccc21" ?
Result string: < 100 nM

---

# Experiment summary: Wild-type MDCK permeability and efflux assay (Papp, efflux ratio)
# Assay type: in vitro ADME
# Experimental context: dog, pH 7.4; Papp B>A/Papp A>B, wild-type MDCK cells; read-out: ER WT (Efflux Ratio)
Measurement name: efflux ratio at 1 h, 10 μM

A selection of reference data follows.
{"Molecule": "CC1COc2cc(Cl)ccc2N1C(=O)N1CC2(C1)CN(c1ncccc1C#N)C2 (stereo not drawn)", "Endpoint result": "< 1"}
{"Molecule": "CC1COc2cc(Cl)c(F)cc2N1C(=O)N1CC2(C1)CN(c1cccnn1)C2 (single isomer, unassigned) [19-4-A]", "Endpoint result": "1 to 2"}
{"Molecule": "Cc1ccnc(N2CC3(CN(C(=O)N4c5ccc(F)cc5OCC4C)C3)C2)c1 (single isomer, unassigned)", "Endpoint result": "< 1"}
{"Molecule": "Cc1cncc(N2CC3(CN(C(=O)N4c5ccc(F)cc5OCC4C)C3)C2)n1 (single isomer, unassigned) [20-2-A]", "Endpoint result": "< 1"}
{"Molecule": "O=C(N1CC2(C1)CN(c1cccnn1)C2)N1CCOc2cc(Cl)ccc21", "Endpoint result": "< 1"}

Query string: Request the reported efflux ratio at 1 h, 10 μM associated with CC1COc2cc(Cl)ccc2N1C(=O)N1CC2(C1)CN(c1ncccn1)C2 (single isomer, unassigned)
Result string: < 1

---

efflux ratio at 1 h, 10 μM overview
# Experiment summary: Wild-type MDCK permeability and efflux assay (Papp, efflux ratio)
# Format: in vitro ADME
# Experimental context: dog, pH 7.4; Papp B>A/Papp A>B, wild-type MDCK cells; read-out: ER WT (Efflux Ratio)

Worked set:
{"Compound": "O=C(N1CC2(C1)CN(c1ccc(F)cn1)C2)N1CCOc2cc(Cl)ccc21 [9-7]", "Endpoint result": "< 1"}
{"Compound": "CC1COc2cc(F)c(F)cc2N1C(=O)N1CC2(C1)CN(c1ncccn1)C2 (single isomer, unassigned) [19-1-B]", "Endpoint result": "1 to 2"}
{"Compound": "O=C(N1CC2(C1)CN(c1cnc(F)cn1)C2)N1CCOc2cc(Cl)ccc21 [1-18]", "Endpoint result": "< 1"}

Now turn to the next compound.
Query string: So what does the record say about efflux ratio at 1 h, 10 μM for O=C(N1CC2(C1)CN(c1ccc(F)cn1)C2)N1CCC(F)(F)c2cc(Cl)ccc21 [17-1] ?
Result string: < 1
